Overview of reported koff across a group of binders:
- assayed_target: T1, cynomolgus SIRP-α (cynomolgus monkey, UniProt Q5TFQ8 30-148 (human entry), limits assumed)
- T1 construct: also called cyno1
- T1 chain: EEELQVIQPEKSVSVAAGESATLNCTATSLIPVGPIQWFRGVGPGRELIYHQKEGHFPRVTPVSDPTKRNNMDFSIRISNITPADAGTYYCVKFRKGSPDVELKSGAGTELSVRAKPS
- assay_remarks: SPR
observation_type: koff

[
  {
    "binder": "Hum3/AB25_HC_wt (antibody, V domains shown) VH: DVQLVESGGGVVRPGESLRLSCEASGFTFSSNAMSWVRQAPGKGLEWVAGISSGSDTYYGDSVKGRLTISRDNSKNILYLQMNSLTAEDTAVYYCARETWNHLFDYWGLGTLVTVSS VL: SYELTQPPSVSVSPGQTARITCSGGDYYSTYYAWYQQKPGQAPVTVIHSDDKRPSDIPERFSGSSSGTTVTLTISGVQAEDEADYYCGGYDGRTYINTFGGGTKLTVL",
    "result": "0.000375 s⁻¹"
  },
  {
    "binder": "antibody 21 (antibody, V domains shown, also called AB21; S21) VH: DVQLVESGGGVVRPGESLRLSCAASGFTFSSNAMSWVRQAPGKGLEWLAGISAGGSDTYYPASVKGRFTISRDNSKNTLYLQMNTLTAEDTAVYYCARETWNHLFDYWGLGTLVTVSS VL: ALTQPASVSANPGETVKIACSGGDYYSYYYGWYQQKAPGSALVTVIYSDDKRPSDIPSRFSGSASGSTATLTITGVRAEDEAVYYCGGYDYSTYANAFGAGTTLTVL",
    "result": "0.00229 s⁻¹"
  }
]

Source listed as patent US20210363269A1.
